- Test system: MCF7 breast
- protocol: NCI tumour cell line growth inhibition, 48 h
reported-metric: TGI

compound: CCOC(=O)C1C=C1C(C)(C)O (stereo unspecified)
reported-metric: TGI
reported-value: > 10 µM

compound: CO[C@@H]1[C@H](O)CC[C@]2(CO2)[C@H]1[C@@]1(C)O[C@@H]1CC=C(C)C
reported-metric: TGI
reported-value: > 200 µM

compound: Cc1c(CN)c(C)c(CN)c(C)c1CN
reported-metric: TGI
reported-value: > 100 µM

compound: CCOC(=O)/C=C\[C@H]1OC(C)(C)O[C@H]1[C@H](O)[C@H]1COC(C)(C)O1
reported-metric: TGI
reported-value: 40.7 µM

compound: Cc1cc2c(C(C)C)c(O)c(O)c(C=NCC3CCCN4CCCCC34)c2cc1-c1cc2c(C=NCC3CCCN4CCCCC34)c(O)c(O)c(C(C)C)c2cc1C (stereo unspecified)
reported-metric: TGI
reported-value: 37 µM

response.value for "CC1(C)CSCC(C)(C)C(=N/N)/C1=N\N" (field: TGI) = > 100 µM
